- Test system: MALME-3M melanoma
- Measurement Description: NCI tumour cell line growth inhibition, 48 h
Where a SMILES comes first, the peptide text is derived from it. The star is where a group is joined. Boc = CC(C)(C)OC(=O)*; OBn = c1ccc(CO*)cc1; Bn = c1ccc(C*)cc1
Answer each item with its documented TGI.

Specify reported TGI for the compound shown: OC1(c2ccc(Cl)cc2)c2ccccc2C2=Nc3ccccc3CN21 (centres undefined)
92 µM

State its TGI: Cc1ccc(S(=O)(=O)OC2CN3CCC2CC3)cc1 (centres undefined)
> 100 µM

Consider the compound `CCOC(=O)c1ccc(N=C/C=C(\Nc2ccc(C(=O)OCC)cc2)c2ccc3ccccc3c2)cc1` and give its recorded TGI.
43.6 µM

Provide only the value of recorded TGI for `CCOC(=O)c1cc(-c2ccc(OC)c(OC)c2)cn1C`
> 10 µM

Output TGI of CC(O)CN(CCN(CC(C)O)CC(C)O)CC(C)O.O=[N+]([O-])O.[Cu+2] (centres undefined)
> 100 µM

Let me know recorded TGI for `Cn1c2ccccc2n2c(=O)c(-c3ccc(O)cc3)nnc12` , thanks.
> 100 µM

Given CC(C)CC(NC(=O)C(Cc1ccccc1)NC(=O)C(COCc1ccccc1)NC(=O)OC(C)(C)C)C(=O)OCc1ccccc1 (stereo not drawn) (Boc-Ser(Bn)-Phe-Leu-OBn; configuration not given here) , respond with its TGI.
> 100 µM

Tell us which TGI value is on record for `C[N+](C)(C)CCCCCc1c2nc(c(CCCCC[N+](C)(C)C)c3ccc([nH]3)c(CCCCC[N+](C)(C)C)c3ccc([nH]3)c(CCCCC[N+](C)(C)C)c3nc1C=C3)C=C2`
> 100 µM

Output measured TGI for this item: CC(C)(C)c1cc(C2COC(=O)COCCOCC(=O)OCCOCCO2)cc(C(C)(C)C)c1O (centres undefined)
> 100 µM

====

- System: U251 CNS
Please reply with one of these outcomes: active, inactive

Dear colleague, could you share the recorded outcome for `Cc1ccc(/C=C(\C#N)n2nnc3cc(F)c(F)cc32)cc1` when you have a moment?
inactive

Dear colleague, could you share the recorded outcome for `CNCCNc1nc2ccccc2c2c(=O)c3cccc(OC)c3sc12` when you have a moment?
inactive

Call for entry `CCCNc1nc(-c2ccc(OC)cc2)nc2ccccc12` :
inactive

Hello, I am checking results. What call was entered for Nc1nc(Cl)nc2c1ncn2C1O[C@H](CO)[C@@H](O)[C@@H]1F (stereo not given in full) ?
inactive

Test call for this compound, please: `O=C1NC(=NCCc2ccccc2Cl)S/C1=C\c1ccc2ncccc2c1`
inactive

Per the assay record, what outcome was assigned to `COc1ccccc1Nc1nc(-c2cc3cccc(C(F)(F)F)c3oc2=O)cs1` ?
active

Given `CC1=C(C)C(=O)C(C(C)C2=C(C)C(=O)C(C)=C(C)C2=O)=C(C)C1=O` , state the outcome it received in this test.
inactive

Recorded call for `C=C1C(=O)O[C@H]2[C@H]1CC/C(Cn1cc(CCC)nn1)=C\CC[C@@]1(C)O[C@@H]21` ?
inactive

Assay result, entry `Cn1cccc1-c1cc(-c2ccc(Br)cc2)nc(N)c1C#N` — outcome?
inactive

What did this assay record as the result for `COc1ccc(-n2c(N)c(C(=O)NCCN3CCOCC3)c3nc4ccccc4nc32)cc1OC` ?
inactive

====

- Test system: NCI-H522 lung
- Measurement Description: NCI tumour cell line growth inhibition, 48 h
Please respond with reported log10 of TGI for every item in the list.
Please keep in mind that the values are log10 of TGI expressed in µM.

Under NCI-H522 lung, report log10 of TGI for O=C(NC(=S)NS(=O)(=O)c1ccc(N2N=C3c4ccccc4CC3C2c2cccs2)cc1)c1ccccc1 (stereo not given)
1.91

Report its log10 of TGI with NCI-H522 lung as the test system: CC1=C(C(=O)Nc2ccc(F)c(Cl)c2)C(c2cccc(Cl)c2)NC(=O)N1 (stereo not given)
1.52

For NCI-H522 lung, give the measured log10 of TGI of the entry `O=C(O)/C(Cl)=C(/Cl)C(=O)Nc1cccc(Cl)c1`
1.00

State measured log10 of TGI of the compound `CCOC(=O)C(=Cc1ccccc1Br)C(=O)OCC` with NCI-H522 lung.
0.63

Report log10 of TGI under test system NCI-H522 lung for O=C1/C(=C/c2ccc(O)cc2)CCC1CNc1ccc(Cl)cc1 (stereo not given) .
0.40

Check NCI-H522 lung data and give log10 of TGI for `CNCCNc1nc2ccccc2c2c(=O)c3cccc(OC)c3sc12` .
0.49

Look up and report measured log10 of TGI (NCI-H522 lung) for the following compound: `O=C(Nc1ccccc1Cl)c1ccc(NC2=C(Cl)C(=O)N(Cc3ccccc3)C2=O)cc1`
1.59

State recorded log10 of TGI with NCI-H522 lung, entry `Cc1c2cc[n+](C)cc2c(C)c2c1[nH]c1ccc(O)cc12` , no comment.
1.75

// fetch log10 of TGI; item: `CC1CCN(c2nnc(Cl)cc2C(=O)c2ccccc2)CC1` ; system: NCI-H522 lung
1.89

State measured log10 of TGI of the compound `CCOC(=O)Cc1csc(/N=C\c2c(O)c3ccccc3oc2=O)n1` with NCI-H522 lung.
1.63

State log10 of TGI on NCI-H522 lung. Entry: `C=C1C(=O)O[C@H]2[C@H]1CC/C(COC(=O)CCC(=O)OC/C1=C/CC[C@@]3(C)O[C@H]3[C@H]3OC(=O)C(=C)[C@@H]3CC1)=C\CC[C@@]1(C)O[C@@H]21`
0.49

GET log10 of TGI where system = NCI-H522 lung and item = `COc1cc(/C=C\c2ccc(SC)cc2)cc(OC)c1OC`
-1.43

Give reported log10 of TGI for `O=c1c(-c2ccccc2)c[nH]c2cc([N+](=O)[O-])c(/C(Cl)=C/c3ccccc3)cc12` (NCI-H522 lung)
1.21

Give the observed log10 of TGI of `O=C1c2cccc3cccc(c23)C(=O)N1CCCCOc1ccc(-c2nc3ccc(N4CCOCC4)cc3[nH]2)cc1` for NCI-H522 lung.
1.61

Look up and report measured log10 of TGI (NCI-H522 lung) for the following compound: CC1(C(O)c2ccccc2)CN(C(C)(C)C)C(=O)/C1=C\Sc1ccccc1 (stereo not given)
1.36

Look up NCI-H522 lung data: log10 of TGI of `COc1ccc2c(c1)CCC(CN1CCN(CCOC(c3ccc(F)cc3)c3ccc(F)cc3)CC1)=C2` , then report it.
1.44

Answer briefly: log10 of TGI recorded on NCI-H522 lung for `C=C1C(=O)O[C@H]2[C@H]1CC/C(Cn1cc(CCC)nn1)=C\CC[C@@]1(C)O[C@@H]21`
1.03

Report the value of log10 of TGI obtained on NCI-H522 lung for `O=C1c2cccnc2-c2nc(-c3ccc([N+](=O)[O-])cc3)cc3c2c1nc1ccccc13` .
0.84

Give log10 of TGI for this entry on NCI-H522 lung: CC(=O)c1ccc2c(c1)CC1(C2)Cc2cc3c(cc2C1)C(=O)CC3 (stereo not given)
1.15

Answer with log10 of TGI of `C[Si](C)(C)C#C[I+]c1ccccc1` measured for NCI-H522 lung.
1.37

Look up NCI-H522 lung data: log10 of TGI of `CC(C)[C@]12O[C@H]1[C@@H]1O[C@]13[C@]1(O[C@H]1C[C@H]1c4c(C(=O)c5ccccc5)oc(OC(=O)c5ccccc5)c4CC[C@@]13C)[C@@H]2O` , then report it.
-1.04

Specify log10 of TGI for `NS(=O)(=O)c1ccc(CNC(=S)NC(=O)Nc2ccc(Cl)c(Cl)c2)cc1` , system NCI-H522 lung.
1.53

Consider the compound `CCN(CCCl)CCNc1c2ccccc2nc2ccc(OC)cc12` tested on NCI-H522 lung; state its log10 of TGI.
0.23

====

- Test system: TK-10 renal
- Measurement Description: NCI tumour cell line growth inhibition, 48 h
Outcome Measure: TGI

Provide only the value of recorded TGI for Cc1ccc(S(=O)/C=C(\NC(=O)OCc2ccccc2)C(F)(F)F)cc1 (stereo not given)
> 100 µM

Read the entry `COC(=O)c1nc2c(C)c(O)c(O)c([C@H](C)CCC=C(C)C)c2o1` and write its reported TGI.
> 100 µM

Give the measured TGI for `O=C1NC(=NCCc2ccccc2Cl)S/C1=C\c1ccc2ncccc2c1`
> 20.1 µM

Provide TGI value for the following molecule: CCC1=C(C)C2=NC1=CC1=NC(=C(CC)/C1=C/O)C=C1N=C3C(=C1C)C(=O)C(C(=O)OC)C3=C1NC(=C2)C(C)C1CCC(=O)OC (stereo not given)
> 100 µM

Give the reported value of TGI for this record: CC(=O)O[C@H]1CC[C@@]2(C)C(=CC[C@@H]3C2CC[C@]2(C)Nc4oncc4CC32)C1 (stereo not given in full)
> 100 µM
